- Test system: Plasmodium falciparum
- ASSAY REMARKS: Antimalarial activity against Plasmodium falciparum 3D7 by Giemsa staining
- Format: functional, organism-based
pIC50: −log10 of the molar value.
# if value of pIC50 reaches 5, tag true; if it stays below, tag false

# count of solved cases: 3
[[record]]
compound = "Cc1cc2c3c(cc(=O)cc-3o1)CC(C)O2 (stereo unspecified)"
system_under_test = "Plasmodium falciparum"
category = "true"

[[record]]
compound = "Cc1cc2cc(=O)cc3oc(C)cc(o1)c23 [ANHYDROBARAKOL]"
system_under_test = "Plasmodium falciparum"
category = "true"

[[record]]
compound = "Cc1cc2cc(O)cc3c2c(n1)CC(C)O3 (stereo unspecified)"
system_under_test = "Plasmodium falciparum"
category = "false"


Turning now to a further record.
Input line: Decide: is the reported value of pIC50 for CC(=O)Cc1cc(O)cc2oc(CC3(C)Cc4nc(C)cc5cc(O)cc(c45)O3)cc(=O)c12 (stereo unspecified) equal to or greater than 5?
Output line: true
